Sourced from patent US8324188B2

- Test system: A172
- TEST_DETAILS: WST-1 proliferation assay, A172
- Type: cell-based, human
- SETUP_CONDITIONS: Homo sapiens, A 172
- Procedure: AP-121 was prepared as 5 mM stock solution in distilled sterile water, Temozolomide (TMZ) (Haorui Pharma-Chem, Inc., Edison, N.J.) was prepared as 100 mM in sterile filtrated DMSO; Adriamycin (ADR) (Sigma) was prepared as 1 mM in distilled sterile water; Camptothecin (CTP) (Sigma) was prepared as 10 mM solution in 0.1 N NaOH; Tarceva (Proteinkinase, Germany) was prepared as 5 mM solution in sterile DMSO. All compound stocks were kept at −20° C. […]
RESULT_TYPE: IC50

Give the reported IC50 for this compound. Cn1nnc2c(C(N)=O)ncn2c1=O [TMZ, Temozolomide]
38.3 µM

Indicate its recorded IC50; the compound in question is CCCCCCCCCCCCCCCCCCOCC(COP(=O)([O-])OCC[N+](C)(C)C)OC (racemic)
4.6 µM

Supply measured IC50 of CC[C@@]1(O)C(=O)OCc2c1cc1n(c2=O)Cc2cc3ccccc3nc2-1 in your reply.
0.02 µM

Return value of IC50 for input COc1cccc2c1C(=O)c1c(O)c3c(c(O)c1C2=O)C[C@@](O)(C(=O)CO)C[C@@H]3O[C@H]1C[C@H](N)[C@H](O)[C@H](C)O1 , no commentary.
0.07 µM

// Input: C#Cc1cccc(Nc2ncnc3cc(OCCOC)c(OCCOC)cc23)c1 . Output its IC50 only.
18.8 µM
